Hey, just so you know, these numbers are from PubChem BioAssay (NCATS).

assay: qHTS of pediatric cancer cell lines to identify multiple opportunities for drug repurposing: Primary screen for SK-N-MC cells (AID 1347093); conditions: SK-N-MC viability, CellTiter-Glo luminescence, 48 h; series mostly up to 46 µM; further: potency means the concentration at half of the fitted maximal effect
Results filed as inconclusive are left out. Activity calls are given as the source filed them. The call rests on the fitted dose curve; in most records, active means well fitted cell-killing curve with a large enough effect; inconclusive means small, poorly fitted or top-dose-only effect; inactive means no such curve, though single readings can be large or run the other way.

[
  {
    "compound": "COC(=O)CCc1ccc(OCC(O)CNC(C)C)cc1 (stereo not drawn)",
    "Potency": "inactive"
  },
  {
    "compound": "CCCCCCC[N+](CC)(CC)CCCCc1ccc(Cl)cc1",
    "Potency": "3.35 µM (active)"
  },
  {
    "compound": "C/C=C(/C(=C/C)c1ccc(O)cc1)c1ccc(O)cc1",
    "Potency": "8.41 µM (active)"
  },
  {
    "compound": "Cc1cc(=O)n(-c2ccccc2)n1C",
    "Potency": "inactive"
  },
  {
    "compound": "COc1c(C)c2c(c(O)c1C/C=C(\\C)CCC(=O)O)C(=O)OC2",
    "Potency": "0.0841 µM (active)"
  },
  {
    "compound": "CCOC(=O)COc1ccc2c(C)c(CCN(CC)CC)c(=O)oc2c1Cl",
    "Potency": "inactive"
  },
  {
    "compound": "CCCCC(CC)CN=C(N)NC(N)=NCCCCCCN=C(N)NC(N)=NCC(CC)CCCC (stereo not drawn)",
    "Potency": "5.31 µM (active)"
  },
  {
    "compound": "CCCCCCCCCCCCCCCC[N+](C)(C)CC",
    "Potency": "2.66 µM (active)"
  },
  {
    "compound": "Cc1onc(-c2c(Cl)cccc2Cl)c1C(=O)N[C@@H]1C(=O)N2[C@@H]1SC(C)(C)[C@@H]2C(=O)O",
    "Potency": "inactive"
  },
  {
    "compound": "Cc1cc(O)c(C(C)C)cc1Cl",
    "Potency": "inactive"
  },
  {
    "compound": "OC[C@H]1O[C@@H](n2cnc3c(=S)nc[nH]c32)[C@H](O)[C@@H]1O",
    "Potency": "18.8 µM (active)"
  },
  {
    "compound": "Nc1nc2ncc(CNc3ccc(C(=O)N[C@@H](CCC(=O)O)C(=O)O)cc3)nc2c(=O)[nH]1",
    "Potency": "inactive"
  },
  {
    "compound": "C[C@H](O)C(=O)Nc1c(I)c(C(=O)NC(CO)CO)c(I)c(C(=O)NC(CO)CO)c1I",
    "Potency": "inactive"
  },
  {
    "compound": "CCN1CCN(c2cc3c(cc2F)c(=O)c(C(=O)O)cn3C2CC2)CC1",
    "Potency": "inactive"
  },
  {
    "compound": "COc1cccc(OC)c1C(=O)N[C@@H]1C(=O)N2[C@@H]1SC(C)(C)[C@@H]2C(=O)O",
    "Potency": "inactive"
  },
  {
    "compound": "C[n+]1c2cc(N)ccc2cc2ccc(N)cc21 (tested in a mixture with another compound)",
    "Potency": "8.41 µM (active)"
  },
  {
    "compound": "COc1ccc(OC)c(C(O)CNC(=O)CN)c1 (stereo not drawn)",
    "Potency": "inactive"
  },
  {
    "compound": "O=C(O)CCCCC(=O)O",
    "Potency": "inactive"
  }
]
